- System: HCT-116 colon
- protocol_details: NCI-60 one-dose screen, 48 h (100 = growth as untreated, 0 = no growth, -100 = all killed)
- test_conditions: 10 µM unless noted
Compounds without any hit were thinned out: in the full panel of roughly 83,000, 20% have a hit.
Provide the recorded growth for the entries that follow.
Form entry: value (%) — number only.

Query block: Form field: reported growth of COc1ccc2[nH]cc(/C=C3/C(=O)Nc4ccc(Cl)cc43)c2c1
Result block: 13.5

Query block: Form field: reported growth of CSC1=Nc2c(c(C)c(-c3ccccc3)n2CCCN2CCCCC2)C2=NC(=O)C[C@H](C)N12
Result block: 42.9

Query block: Form field: reported growth of O=C1Cc2cc(CCn3cncn3)c(Cl)cc2N1
Result block: 79

Query block: Form field: reported growth of COc1ccc2c(c1)C(=O)/C(=C/c1cccc(OCC(=O)c3ccccc3)c1)CC2
Result block: 72.1

###

- Tested on: DU-145 prostate
- protocol_details: NCI-60 one-dose screen, 48 h (100 = growth as untreated, 0 = no growth, -100 = all killed)
- test_conditions: 10 µM unless noted
This is part of a sample that, as a whole, favours compounds with a hit. Of some 83,000 tested, about 20% had one in any assay.
Provide the recorded growth for the entries that follow.
Form entry: value (%) — number only.

Query block: Form field: reported growth of CCC(=O)Nc1ccccc1C#C/C=C\C#Cc1ccccc1C(F)(F)F
Result block: 40

Query block: Form field: reported growth of c1ccc(-n2nnnc2-c2cccc3ccccc23)cc1
Result block: 7.52

Query block: Form field: reported growth of CCC1=C(c2ccc(OC)cc2)C(C)Oc2cc(OC(C)=O)ccc21 (stereo not drawn)
Result block: 102

Query block: Form field: reported growth of Cc1ccc(C(O)C2=CC(=O)c3ccccc3C2=O)cc1 (stereo not drawn)
Result block: 111

Query block: Form field: reported growth of CC[C@]1(O)CC2CN(CCc3c([nH]c4ccccc34)[C@@](C(=O)OC)(c3cc4c(cc3OC)N(C)[C@H]3[C@@](O)(C(=O)OC)[C@H](OC(C)=O)[C@]5(CC)C=CCN6CC[C@]43[C@@H]65)C2)C1 (stereo partly drawn)
Result block: -39.8

Query block: Form field: reported growth of CCOC(=O)c1cc(-c2cccnc2)nc2c(Cl)cc(Cl)cc12
Result block: 103

Query block: Form field: reported growth of COc1cc(C2NC(c3ccc(Cl)cc3)C(C)/C(=N/NC(N)=S)C2C)cc(OC)c1OC (stereo not drawn)
Result block: 117

Query block: Form field: reported growth of CCCCCCCC1(C)NC(=O)NC1=O (stereo not drawn)
Result block: 115

Query block: Form field: reported growth of Nc1c2ccccc2nc2ccccc12 (tested in a mixture with another compound)
Result block: 19.4

Query block: Form field: reported growth of Nc1ccc(C2=Nc3cccc4cccc(c34)S2)cc1
Result block: 98.2

Query block: Form field: reported growth of CC(C)[C@]12O[C@H]1[C@@H]1O[C@]13[C@]1(O[C@H]1C[C@H]1C4=C(CC[C@@]13C)C(=O)OC4)[C@@H]2OC(=O)CN(C)C
Result block: 3.28

Query block: Form field: reported growth of C=C(C)[C@H]1CC/C(C)=C/CC[C@]2(C)O[C@H]2CC/C(COC(C)=O)=C\C1=O
Result block: 140

Query block: Form field: reported growth of COc1cc(C(=O)/C=C/c2cccnc2Nc2ccccc2)cc(OC)c1OC
Result block: -98.9

Query block: Form field: reported growth of O=[N+]([O-])c1ccc2c(c1)S(=O)c1cc([N+](=O)[O-])ccc1N2
Result block: 116

Query block: Form field: reported growth of COc1ccc(Nc2nccc(N3CCN(c4c5ccc(Cl)cc5nc5ccc(OC)cc45)CC3)n2)cc1
Result block: 86.6

Query block: Form field: reported growth of C/C(=C\CCc1ccsc1)CC/C=C(\C)CCCN1CCN(CCO)CC1
Result block: 76.4

Query block: Form field: reported growth of O=C(Nc1cccc2ccccc12)c1cc2c(cc1Br)OCO2
Result block: 103

Query block: Form field: reported growth of Cc1c(C(N)=O)sc2ncn(CC(=O)Nc3ccc(Cl)cc3)c(=O)c12
Result block: 126

Query block: Form field: reported growth of CCC(C)CC(C)C(=O)c1c(O)ccn(O)c1=O (stereo not drawn)
Result block: 42.7

Query block: Form field: reported growth of Fc1ccc(-c2nnc(/C=C/c3cn(-c4ccccc4)nc3-c3ccccc3)o2)cc1
Result block: 110

Query block: Form field: reported growth of O=C(CSc1nc2c(n1Nc1ccccc1)-c1ccccc1SC2)Nc1nc(-c2ccc(Cl)cc2)cs1
Result block: 73.5

Query block: Form field: reported growth of Cc1cc(C)n(C(=O)c2nn(-c3ccc(Cl)cc3)cc2O)n1
Result block: 30

Query block: Form field: reported growth of O=C(C(Br)Br)C(Br)C(Br)c1ccccc1 (stereo not drawn)
Result block: 87.4

Query block: Form field: reported growth of CN=C(NC)N/N=C(C)\C=N\NC(=NC)NC
Result block: 109

Query block: Form field: reported growth of COc1ccc(-c2cn(-c3ccccc3)c(-c3ccccc3)n2)cc1OC
Result block: -22.9

Query block: Form field: reported growth of Cc1cc(NCCCNc2ccnc3cc(Cl)ccc23)nc(N2CCN(C)CC2)n1
Result block: 78.2

Query block: Form field: reported growth of CC(c1ccccn1)C(C)(O)C(C)c1ccccn1 (stereo not drawn)
Result block: 101

Query block: Form field: reported growth of CC/C(=C\c1ccc(N(C)C)cc1)c1nc2ccccc2c(=O)[nH]1
Result block: 105

Query block: Form field: reported growth of COc1cc(/C=C/C(=O)c2c(-c3ccc(Cl)cc3)nc3sc(C)nn23)cc(OC)c1OC
Result block: 90.2

Query block: Form field: reported growth of Nc1ccc2c(c1)/C(=N/O)c1cc([N+](=O)[O-])ccc1-2
Result block: 46.4

Query block: Form field: reported growth of O=C1NC(=O)/C(=C\c2ccccc2)C2=C1CCCC2
Result block: 25.7

Query block: Form field: reported growth of CN(C)c1ccc2c(c1)/C(=N/O)c1ccccc1-2
Result block: 105

Query block: Form field: reported growth of c1cncc(CNc2ccccc2-c2nnc(Nc3ccc4c(c3)OCO4)o2)c1
Result block: 1.3

Query block: Form field: reported growth of CCN(CC)CCNc1ccc(Cl)cc1Cl
Result block: 107

Query block: Form field: reported growth of C/C(=N/N=C(N)N)c1ccc(N)cc1
Result block: 107

Query block: Form field: reported growth of COc1cc2c(cc1OC)C1CCN3C(=O)CCC3N1CC2 (stereo not drawn)
Result block: 111

Query block: Form field: reported growth of O=C(NCCc1ccccc1)C1CCC(=O)N1Cc1ccc(Br)cc1 (stereo not drawn)
Result block: 109

Query block: Form field: reported growth of COC(=O)C[C@@H]1CC=CC(=O)/C1=C(O)/C=C/c1ccccc1
Result block: -28.4

Query block: Form field: reported growth of CCOC(=O)c1c2c(c(C)n1Cc1ccccc1)-c1nc(N)ncc1CC2
Result block: 120

Query block: Form field: reported growth of COc1ccc(-n2nnc(C(=O)O)c2-c2cc(OC)c(OC)c(OC)c2)cc1
Result block: 116

Query block: Form field: reported growth of C/C(=C\CCc1ccsc1)CC/C=C(\C)CCCN1CCC(CO)CC1
Result block: 64.5

Query block: Form field: reported growth of O=[N+]([O-])c1ccc(Oc2cccc(C(F)(F)F)c2)c([N+](=O)[O-])c1
Result block: 95.2

Query block: Form field: reported growth of COc1ccc(-c2csc(NC(=O)c3cc(O)c(O)c(O)c3)n2)cc1
Result block: 65.2

###

- Test system: 786-0 renal
- protocol_details: NCI-60 one-dose screen, 48 h (100 = growth as untreated, 0 = no growth, -100 = all killed)
- test_conditions: 10 µM unless noted
The panel holds about 83,000 compounds, 20% with a hit somewhere; the sample as a whole holds those more often.
recorded_endpoint: growth (%)
Form entry: value (%) — number only.

Query block: Form field: reported growth of COC(=O)c1ccc2c(c1)nc(-c1ccc(O)c(OC)c1)n2-c1cc(C(C)(C)C)[nH]n1
Result block: 97.7

Query block: Form field: reported growth of COc1cc(C2NC(c3ccc(Cl)cc3)C(C)/C(=N/NC(N)=S)C2C)cc(OC)c1OC (stereo not drawn)
Result block: 91.1

Query block: Form field: reported growth of CC[C@@H]1OC(=O)[C@H](C)[C@@H](O[C@H]2C[C@@](C)(OC)[C@@H](O)[C@H](C)O2)[C@H](C)[C@@H](O[C@@H]2O[C@H](C)C[C@H](N(C)C)[C@H]2O)[C@](C)(O)C[C@@H](C)[C@@H]2N[C@@H](COCCOC)O[C@H]([C@H]2C)[C@]1(C)O
Result block: 95.8

Query block: Form field: reported growth of NC(N)=N/N=C(/c1ccccc1)c1ccc(Cl)cc1
Result block: 69.1

Query block: Form field: reported growth of COc1cc(/C=C/C(=O)c2ccc(F)cc2)ccc1OCCCCCOc1cc2c(cc1OC)C(=O)N1CCCC1C=N2 (stereo not drawn)
Result block: -43.3

Query block: Form field: reported growth of CCCCn1c(Cc2ccc(Cl)cc2)nc2cc(OC)c(OC)cc2c1=O
Result block: 84.4

Query block: Form field: reported growth of C[N+]1(CCC[N+]2(C)C[C@@H]3[C@H](C2)[C@@H]2C=C[C@H]3C2)CCOCC1 (stereo partly drawn)
Result block: 109

Query block: Form field: reported growth of CCN(CC)CCNc1ccc(Cl)cc1Cl
Result block: 104
